# measurement_notes: Human HepG2 cell viability assay in 384 well format
# Format: toxicity, cell-based
# Set-up: dose 125 nL, time 70.5 hour; concentration not given beside the values
# condition_description: HepG2 cells, read-out: Inhibition

| compound | unit | cytotoxicity at 70.5 h |
| --- | --- | --- |
| Cn1cccc1C(=O)N1CC2(CCN(C(=O)c3cccnc3)C2)C1 | % | -7.36 |
| CCCc1nnc(N2CCC(N3CCCCCC3)CC2)o1 | % | -15.8 |
| O=C([C@@H](O)Cc1ccccc1)N1CCCn2cncc2C1 | % | -7.92 |
| CCN1CCCC(O)(c2nc(C)c(CCOc3ccccc3Cl)s2)CC1 (configuration not stated) | % | -7.73 |
| O=C(NCC1(c2cccc(F)c2)CC1)N1CCC2(CCOC2)C1 (configuration not stated) | % | -7.28 |
| O=C(N1CCCC1)N1CCC2(CCCN(CCOc3ccccc3)C2)C1 (configuration not stated) | % | 26.5 |
| CNC(=O)c1ccc(-n2c(COCC(=O)O)nc3c(C)cccc32)o1 | % | -1.45 |
| CCC(C)S(=O)(=O)N(Cc1ccco1)Cc1ccccc1O (configuration not stated) | % | -10.4 |
| COCC(=O)N1CC[C@H]2C[C@H](c3nnc(C4CC4)o3)O[C@@H]2C1 | % | -8.34 |
| O=C(NCCN1C(=O)c2ccccc2C1=O)c1scnc1Cl | % | -7.67 |
| O=C1NCCCc2[nH]c(-c3nc(C4CC4)no3)nc21 | % | -3.92 |
| O=C(C1CCCCO1)N1CCc2ncnc(NCCO)c2CC1 (configuration not stated) | % | -2.71 |

====

# measurement_notes: Human HepG2 cell viability assay in 384 well format
# Format: toxicity, cell-based
# Parameters: dose 125 nL, time 70.5 hour; concentration not given beside the values
# condition_description: HepG2 cells, read-out: Inhibition

| compound | unit | cytotoxicity at 70.5 h |
| --- | --- | --- |
| O=C(c1ccnnc1)N1CCN2C[C@H](OCc3cccnc3)C[C@H]2C1 | % | -8.22 |
| O=C(c1cccnc1)N1CCCC1C1CCN(Cc2ccccc2)CC1 (configuration not stated) | % | -13.7 |
| CCOc1cccc(CCNC(=O)Cc2cccc(O)c2)n1 | % | -7.71 |
| Cc1cc2cc(C(=O)N3CC[C@H](O)[C@]4(CCCO4)C3)ccc2o1 | % | -18.1 |
| Cc1nc(CNC(=O)NCc2cccnc2N(C)C)cs1 | % | -5.06 |
| Cc1cc(NC(=O)CN2CCc3cncnc3C2)no1 | % | 25.7 |
| CC(NC(=O)CCNC(=O)c1ccoc1)c1ccccc1 (configuration not stated) | % | -7.29 |
| Cc1ccsc1C(=O)N1CCc2ncnc(NC(C)C)c2CC1 | % | -7.7 |
| COC(=O)c1cccn1C1CCN(C(=O)c2c(C)noc2C)CC1 | % | 3.97 |
| Cc1ncc(CNc2ccc(C(=O)NCc3ccco3)cc2C)s1 | % | 1.95 |
| Cc1nc(N2CCC3(CCCNC3=O)C2)nc2c1CCCC2 (configuration not stated) | % | -3.11 |
| CCN1Cc2cc(OC)ccc2N(CC(C)(C)O)CCC1=O | % | -13 |

====

# measurement_notes: Human HepG2 cell viability assay in 384 well format
# Assay type: toxicity, cell-based
# Design: dose 125 nL, time 70.5 hour; concentration not given beside the values
# condition_description: HepG2 cells, read-out: Inhibition
Listing: cytotoxicity at 70.5 h of selected compounds

| compound | cytotoxicity at 70.5 h, % |
| --- | --- |
| CC(O)c1cn(CC2CCN(C(=O)CN3CCCC3=O)CC2)nn1 (stereo unspecified) | -10.1 |
| COCCC(=O)N1CCc2c(CNc3ncccn3)cncc2C1 | -1.53 |
| Cc1cnc(N2CCN3C[C@H](OCc4cccc(C)n4)C[C@H]3C2)nc1 | 0.481 |
| Cc1ccc(-c2ccc(Cl)nn2)cc1S(N)(=O)=O | -7.63 |
| CCC(CNC(=O)c1ccccc1OC)N1CCc2ccccc2C1 (stereo unspecified) | 7.61 |
| Cc1nn(C)c(Cl)c1C(=O)NCC1(C(N)=O)CCOCC1 | -11.7 |
| COc1ccc(Cl)cc1NC(=O)CN1CCc2nc(NC(C)=O)sc2C1 | 18.9 |
| Cc1nsc(C(=O)NCCCc2ccccc2)n1 | -5.43 |
| Cc1cnc(N2CC[C@@]3(O)CCCC[C@H]3C2)nc1-c1ccnn1C | -7.52 |
| Cc1ccc(C(=O)NCc2cc(F)ccc2N2CCCN(C)CC2)o1 | 1.17 |
| CC(C)CC(=O)NCCn1nc(C2CCNC2)c2cccnc21 (stereo unspecified) | -2.13 |
